// data source = patent US20120135912A1

Items are presented alongside their recorded fold-improvement in binding relative to human 2D-VCAM-1.
measured on: T1, human VLA4-Fc (alpha4-Fc/beta1-Fc heterodimer) (human)
T1 construct: Soluble heterodimer from CHO cells, Protein A purified; also called VLA-Fc
procedure details: ELISA, VLA4-Fc coated, 1 mM MnCl2; from EC50 values
# number only, unit fold dropped from output

Consider the reported fold-improvement in binding relative to human 2D-VCAM-1 for these binders:
Record request: fold-improvement in binding relative to human 2D-VCAM-1 value, item Q38L-2D-VCAM-1 (ligand, also called Q38L 2D-VCAM-1 polypeptide; not shown: His tag) FKIETTPESRYLAQIGDSVSLTCSTTGCESPFFSWRTLIDSPLNGKVTNEGTTSTLTMNPVSFGNEHSYLCTATCESRKLEKGIQVEIYSFPKDPEIHLSGPLEAGKPITVKCSVADVYPFDRLEIDLLKGDHLMKSQEFLEDADRKSLETKSLEVTFTPVIEDIGKVLVCRAKLHIDEMDSVPTVRQAVKELQVYISP
8

Record request: fold-improvement in binding relative to human 2D-VCAM-1 value, item 2D-VCAM-1 variant Clone 151 (ligand, not shown: His tag) FKIETTPESRYLAQIGDSVSLTCSTTGCESPSFYWRPQLDAPLNGKVTNEGTTSTLTMNPVSFGNEHSYLCTAACESRRLEKGIQVEIYSFPKDPEIHLSGPLEAGKPITVKCSVADVYPFDRLEIDLLKGDHLMKSQEFLEDADRKSLETKSLEVTFTPVIEDIGKVLVCRAKLHIDEMDSVPTVRQAVKELQVYISP
16

Record request: fold-improvement in binding relative to human 2D-VCAM-1 value, item 2D-VCAM-1 variant Clone 150 (ligand, not shown: His tag of the E. coli construct) FKIETTPESRYLAQIGDSVSLTCSTTGCESPLFFWRPQLDAPLNGKVTNEGTTSTLTMNPVSFGNEHSYLCTARCESRSLEKGIQVEIYSFPKDPEIHLSGPLEAGKPITVKCSVADVYPFDRLEIDLLKGDHLMKSQEFLEDADRKSLETKSLEVTFTPVIEDIGKVLVCRAKLHIDEMDSVPTVRQAVKELQVYISP
32

New cases:
Record request: fold-improvement in binding relative to human 2D-VCAM-1 value, item 2D-VCAM-1 variant Clone 46 (ligand, also called Clone 046; not shown: His tag) FKIETTPESRYLAQIGDSVSLTCSTTGCESPFFSWRPQLDAPLNGKVTNEGTTSTLTMNPVSFGNEHSYLCTATCESRKLEKGIQVEIYSFPKDPEIHLSGPLEAGKPITVKCSVADVYPFDRLEIDLLKGDHLMKSQEFLEDADRKSLETKSLEVTFTPVIEDIGKVLVCRAKLHIDEMDSVPTVRQAVKELQVYISP
172

Record request: fold-improvement in binding relative to human 2D-VCAM-1 value, item 2D-VCAM-1 variant Clone 59 (ligand, also called Clone 059; not shown: His tag) FKIETTPESRYLAQIGDSVSLTCSTTGCESPFFSWRPLLDSPLNGKVTNEGTTSTLTMNPVSFGNEHSYLCTATCESRKLEKGIQVEIYSFPKDPEIHLSGPLEAGKPITVKCSVADVYPFDRLEIDLLKGDHLMKSQEFFEDAAWKSLETKSLEVTFTPVIEDIGKVLVCRAKLHIDEMDSVPTVRQAVKELQVYISP
272

Record request: fold-improvement in binding relative to human 2D-VCAM-1 value, item 2D-VCAM-1 variant Clone 47 (ligand, also called Clone 047; not shown: His tag) FKIETTPESRYLAQIGDSVSLTCSTTGCESPFFSWRPLLDSPLNGKVTNEGTTSTLTMNPVSFGNEHSYLCTATCESRKLEKGIQVEIYSFPKDPEIHLSGPLEAGKPITVKCSVADVYPFDRLEIDLLKGDHLMKSQEFLEDADRKSLETKSLEVTFTPVIEDIGKVLVCRAKLHIDEMDSVPTVRQAVKELQVYISP
128

Record request: fold-improvement in binding relative to human 2D-VCAM-1 value, item 2D-VCAM-1 variant Clone 147 (ligand, not shown: His tag) FKIETTPESRYLAQIGDSVSLTCSTTGCESPSFYWRPLLDSPLNGKVTNEGTTSTLTMNPVSFGNEHSYLCTAACESRRLEKGIQVEIYSFPKDPEIHLSGPLEAGKPITVKCSVADVYPFDRLEIDLLKGDHLMKSQEFLEDADRKSLETKSLEVTFTPVIEDIGKVLVCRAKLHIDEMDSVPTVRQAVKELQVYISP
88
